System: MX-1 cells (BRCA1-deficient)
Assay: Cell proliferation assay (CellTiter-Glo), MX-1
Format: cell-based
Details: Homo sapiens, MX1, light or radiation study; UV+, 365 nm irradiation of cells 1 min after 1 h incubation, 10 days incubation
MEASURED_ATTRIBUTE: IC50 (nM)
Answers are plain numbers, in nM.

Query: IC50; subject: Cn1ncnc1[C@H]1c2nn(Cc3cc4c(cc3[N+](=O)[O-])OCO4)c(=O)c3cc(F)cc(c23)N[C@@H]1c1ccc(F)cc1 577
